# measured-on: DR1: DRA*0101(1–191)/DRB1*0101(1–198) (human)
pIC50: −log10 of the molar value.

binder	pIC50
PKYVKQNTLKLAT [influenza hemagglutinin peptide HA306–318]	7.47
C-terminal fragment of the invariant chain (positions 118–208), devoid of CLIP (domain or fragment) LPMGALPQGPMQNATKYGNMTEDHVMHLLQNADPLKVYPPLKGSFPENLRHLKNTMETIDWKVFESWMHHWLLFEMSRHSLEQKPTDAPPK	5.77
recombinant extracellular part of human invariant chain (positions 73–208) (domain or fragment) QQQGRLDKLTVTSQNLQLENLRMKLPKPPKPVSKMRMATPLLMQALPMGALPQGPMQNATKYGNMTEDHVMHLLQNADPLKVYPPLKGSFPENLRHLKNTMETIDWKVFESWMHHWLLFEMSRHSLEQKPTDAPPK	7.40
LPKPPKPVSKMRMATPLLMQALPM [CLIP peptide fragment of the invariant chain (positions 97–120)]	7.40
